The values you see were collected from paper PMC3896602.

Target: IT1-Fc-3B4 scFv-Fc-scFv bispecific molecule (human)
Assay: SPR
Recorded endpoint: Kd (nM)

- Binder: "human CXCL13 (natural protein) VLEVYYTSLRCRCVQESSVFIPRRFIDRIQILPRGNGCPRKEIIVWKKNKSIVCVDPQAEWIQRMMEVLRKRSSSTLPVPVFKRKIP"
  Value observed: 0.8
